Assignment: determine reported inhibition for the given compounds.
# test system: Cyclin-dependent kinase 2 (Homo sapiens) (UniProt P24941);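 further: mean inhibition of CDK2 in complex with cyclin E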
# assay conditions: at 0.1 µM
Give bare numbers, in %.

Consider the worked cases shown below.
> print(dat)
                                   compound                               test.system  measured.quantity  observed.result
1  Fc1ccc(-c2ncn(CCCN3CCOCC3)c2-c2ccncc2)cc1  Cyclin-dependent kinase 2 (Homo sapiens) (UniProt P24941)         inhibition             2.29
2  COc1ccc2cc(-c3c(-c4ccncc4)nc(-c4ccc([S+](C)[O-])cc4C)n3C)ccc2c1 (stereo unspecified)  Cyclin-dependent kinase 2 (Homo sapiens) (UniProt P24941)         inhibition             1.09
3  CN(C)CCCNc1nccc(-c2c(-c3ccc(F)cc3)nn3cc(C(F)(F)F)ccc23)n1  Cyclin-dependent kinase 2 (Homo sapiens) (UniProt P24941)         inhibition            -2.39
4              CCc1nccc2c1nc(-c1nonc1N)n2CC  Cyclin-dependent kinase 2 (Homo sapiens) (UniProt P24941)         inhibition             1.55
5  COc1ccc(-c2ccc3c(NC(=O)C4CC4)n[nH]c3n2)cc1  Cyclin-dependent kinase 2 (Homo sapiens) (UniProt P24941)         inhibition              1.4

Incoming: Entry CN1CCN(CCCNc2nc3ccc(Oc4ccc(NC(=O)Nc5cc(C(F)(F)F)ccc5F)cc4)cc3[nH]2)CC1 has what inhibition?
Outgoing: -2.32
